reported.property: melting point

* Nc1nc2c(s1)CC(CCN1CCN(c3ccccn3)CC1)CC2 (stereo not drawn) | 176 to 190 °C
* CSC1=NC(=O)C(=Cc2cccc(-c3cc(F)c(O)c(C45CC6CC(CC(C6)C4)C5)c3)c2)S1 | 270 to 271 °C
* NCCC(O)(c1ccc(Cl)cc1)c1ccc(-c2ccc(Cl)cc2)cc1 (stereo not drawn) | 131 to 132 °C
* CCOC(=O)Cn1c(C(=O)O)cc2cc(Cl)ccc21 | 198 to 200 °C
* COc1cc(Cl)nnc1NS(=O)(=O)c1ccc(Cl)s1 | 120 to 122 °C
* CCn1c(-c2ccccc2)c(C2=CCC(C(=O)O)CC2)c2ccccc21 (stereo not drawn) | 147 to 150 °C
* COC(=O)c1cccc(/C=C/C(=O)Nc2ccccc2NC(=O)OC(C)(C)C)c1 | 79 to 82.4 °C
* CN(C)Cc1nnc(CO)n1-c1ccc(Cl)cc1C(=O)c1ccccc1Cl | 138 to 141 °C
* COc1c(Cl)cc(C(C)(C)N(CC(C)=O)C(=O)Cc2ccccc2)cc1Cl | 126 to 127 °C
* CON(C)C(=O)c1cc(C)c(C(c2cc(F)ccc2F)S(=O)(=O)c2ccc(F)cc2)cn1 (stereo not drawn) | 156 to 158 °C
* COc1cc(C(C)C)c2c(c1)S(=O)(=O)N(CCl)C2=O | 151 to 152 °C
* O=C(c1cc2ccccc2c(-c2ccccc2Cl)n1)N1CCCCC1 | 161 °C
* CC(=O)n1nc(C(N)=O)c2ccccc21 | 165 to 171 °C

----------
# key: entry, value: melting point
reported.property: melting point

• CC(C)(C)OC(=O)N1CCC(c2nc3cc(-c4ccc(S(C)(=O)=O)cc4F)ccc3[nH]2)CC1 = 88 to 92 °C
• COc1cc(Cc2c(N)nc(N)nc2O)cc(OC)c1OC = 275 to 276 °C
• CC(O)(C(=O)NCCC(F)(F)F)C(=O)NC1C(=O)N(CCO)c2ccccc2-c2ccccc21 (stereo not given) = 59 to 62 °C
• CC1CCCCN1c1nc(N)nc(-c2cc(Cl)ccc2Cl)n1 (stereo not given) = 136 to 137 °C
• O=C(Nc1cccc(S(=O)(=O)N2CCCC2)c1)c1cnn2c(C(F)(F)F)cc(-c3ccc(Cl)c(Cl)c3)nc12 = 280 °C

----------
We begin with a simple list: items and their reported melting point.
reported.property: melting point

* CCCCCC(C=Cc1ccc(C(=O)O)cc1)c1ccc2c(c1)C(C)(C)CCS2 (racemic) | 146 °C
* Cc1oc(-c2ccccc2)nc1C(O)COc1ccc(N)cc1 (stereo not drawn) | 139 to 140 °C
* O=[N+]([O-])c1ccc(CN2CCCC(O)c3ncccc32)cc1 (stereo not drawn) | 182 to 185 °C

----------
Here the recorded melting point is given for each entry.
reported.property: melting point

- CC(=O)NC[C@H]1CN(c2ccc(C3=CN(C(=O)CO)CCC3)c(F)c2)C(=O)O1: 171 to 173 °C
- CC1(C)CCC(C)(C)c2cc3[nH]c(-c4ccc(C(=O)O)cc4)cc3cc21: 294 to 296 °C
- CC(C)(C)C(=O)c1c[nH]c2ncc(C3=C(c4ccccc4)CCC3)nc12: 207 to 209 °C
- COC(=O)C#CC(=O)c1ccccc1C: 43 to 45 °C
- N#CNc1cc(F)ccc1N1CCOCC1: 168 to 170 °C
- COC=C(C(=O)OC)c1csc2ccc(CBr)cc12: 124 to 125 °C
- C=CCOC1CC(C)(C)N(c2nc(Cl)nc(Cl)n2)C(C)(C)C1: 53 to 55 °C
- CCNC(=S)N1CCN(c2ccc3ccccc3n2)CC1: 193 to 195 °C
- CN(C)C1(c2ccccc2)CCC(=CC(=O)N2CCC(c3c[nH]c4ccc(Cl)cc34)CC2)CC1 (configuration not stated): 115 to 119 °C
- O=Cc1cccc2cc(C(=O)OCc3ccccc3)[nH]c12: 62 °C
- CCc1nnc2c(N)nc3ccccc3n12: 284 to 288 °C
- O=S(c1ccccc1)c1ncc(Cl)cc1F (configuration not stated): 77 to 78 °C
- CCOC(=O)c1cc(C(=O)c2cccc(S(=O)(=O)F)c2)sc1NC(=O)OCC(Cl)(Cl)Cl: 108 to 110 °C
- O=C(O)COc1ccc(C(=O)CN2CCN(c3ccncc3)CC2)cc1: 294 to 296 °C
- CCCCCC(c1ccccc1C(F)(F)F)C(C(N)=O)c1cc(C(=O)O)ccc1C(C)(C)C (configuration not stated): 199 to 200 °C
- CN(c1ccc(Br)cc1)S(=O)(=O)c1cccc(C(=O)Nc2ccc(F)cc2F)c1: 119 to 120 °C
- CC(=O)C(=Cc1cccc([N+](=O)[O-])c1)C(=O)OC(C)C(C)(C)NCCC(c1ccccc1)c1ccccc1 (configuration not stated): 65 to 80 °C
